TARGET: human full-length MKNK1 (Homo sapiens, UniProt Q9BUB5, T385D)
Construct: GST (N); purchased Carna Biosciences 02-145; host or cells: insect cells (baculovirus expression system)
Sequence (Q9BUB5 1-424 isoform Q9BUB5-2 T344D): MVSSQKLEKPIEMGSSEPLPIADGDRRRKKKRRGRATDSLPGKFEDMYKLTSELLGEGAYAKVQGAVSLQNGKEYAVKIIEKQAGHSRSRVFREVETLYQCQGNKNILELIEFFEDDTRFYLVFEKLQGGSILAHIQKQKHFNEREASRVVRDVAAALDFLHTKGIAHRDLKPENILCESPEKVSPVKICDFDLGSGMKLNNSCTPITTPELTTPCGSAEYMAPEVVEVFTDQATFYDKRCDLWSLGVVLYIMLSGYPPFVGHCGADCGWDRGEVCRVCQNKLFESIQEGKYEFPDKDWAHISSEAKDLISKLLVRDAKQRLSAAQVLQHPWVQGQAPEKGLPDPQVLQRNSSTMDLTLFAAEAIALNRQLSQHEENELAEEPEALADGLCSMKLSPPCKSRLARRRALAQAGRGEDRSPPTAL
METHOD: MKNK1 kinase high ATP assay (TR-FRET)
Type: biochemical
MEASUREMENT SETUP: TR-FRET, 2 mM ATP (high ATP), 15 min preincubation with enzyme, 30 min reaction at 22° C.; read-out: MKNK1 IC50
pIC50 values for the compounds below.
In simple prose, pIC50 is minus the logarithm base ten of a concentration in moles per litre.

Previously resolved entries follow.
Cc1cc(Nc2ncnc3sc4c(c23)CC[C@H](C(=O)N(C)CCN(C)C)C4)c(=O)n2c1C(=O)NC21CCCCC1 = 9.70
Cc1cc(Nc2ncnc3sc4c(c23)CC[C@H](C(=O)N2CC(C)(O)C2)C4)c(=O)n2c1C(=O)NC21CCCCC1 = 8.82
O=C1NC2(CCCC2)n2c1c(Cl)cc(Nc1ncnc3sc4c(c13)CC[C@H](C(=O)O)C4)c2=O = 9.00
CN(C)C(=O)[C@H]1CCc2c(sc3ncnc(Nc4cc(Cl)c5n(c4=O)C4(CSC4)NC5=O)c23)C1 = 9.70

State its pIC50: CNC(=O)[C@H]1CCc2c(sc3ncnc(Nc4cc(C)c5n(c4=O)C4(CCCCC4)NC5=O)c23)C1
9.40

State its pIC50: Cc1cc(Nc2ncnc3sc4c(c23)CC[C@H](C(=O)N2CC[C@H](N(C)C)C2)C4)c(=O)n2c1C(=O)NC21CCCCC1
10.00

State its pIC50: Cc1cc(Nc2ncnc3sc4c(c23)CC[C@H](C(=O)N2C[C@H]3C[C@@H]2CO3)C4)c(=O)n2c1C(=O)NC21CCC(F)(F)CC1
9.30

---

TARGET: human full-length MKNK1 (Homo sapiens, UniProt Q9BUB5, T385D)
Construct: GST (N); purchased Carna Biosciences 02-145; host or cells: insect cells (baculovirus expression system)
METHOD: MKNK1 kinase high ATP assay (TR-FRET)
Assay type: biochemical
MEASUREMENT SETUP: TR-FRET, 2 mM ATP (high ATP), 15 min preincubation with enzyme, 30 min reaction at 22° C.; read-out: MKNK1 IC50
EXPERIMENTAL ENDPOINT: IC50 (nM)
# value in nM; strip the unit string

Previously resolved entries follow.
Cc1cc(Nc2ncnc3sc4c(c23)CC[C@H](C(=O)N2CC[C@H](N(C)C)C2)C4)c(=O)n2c1C(=O)NC21CCC1 = 0.2
CC1(C)NC(=O)c2c(Cl)cc(Nc3ncnc4sc5c(c34)CC[C@H](C(=O)N3CCC3)C5)c(=O)n21 = 0.2

State its IC50: Cc1cc(Nc2ncnc3sc4c(c23)CC[C@H](C(=O)O)C4)c(=O)n2c1C(=O)NC2(C)C
15.6

---

TARGET: human full-length MKNK1 (Homo sapiens, UniProt Q9BUB5, T385D)
Construct: GST (N); purchased Carna Biosciences 02-145; host or cells: insect cells (baculovirus expression system)
METHOD: MKNK1 kinase high ATP assay (TR-FRET)
Assay type: biochemical
MEASUREMENT SETUP: TR-FRET, 2 mM ATP (high ATP), 15 min preincubation with enzyme, 30 min reaction at 22° C.; read-out: MKNK1 IC50
Group membership follows IC50 per the scheme lower band = under 0.4 nM, central band = from 0.4 nM up to 0.9 nM, upper band = 0.9 nM and over

# count of solved cases: 2
CC1(C)NC(=O)c2c(Cl)cc(Nc3ncnc4sc5c(c34)CC[C@H](C(=O)O)C5)c(=O)n21 = upper band
C[C@@H]1CN(C(=O)[C@H]2CCc3c(sc4ncnc(Nc5cc(Cl)c6n(c5=O)C5(CCCC5)NC6=O)c34)C2)CCN1C = lower band

Moving on to another compound below.
Using the reported IC50, which band applies to O=C1NC2(CSC2)n2c1c(Cl)cc(Nc1ncnc3sc4c(c13)CC[C@H](C(=O)N1CCC1)C4)c2=O ?
lower band
